Test system: LTB4 synthesis in human basophilic leucocytes
Assay: Inhibition of arachidonic acid induced LTB4 synthesis
Type: cell-based
Settings: Leucocyte, HPLC, UV 271 nm
value kind: pIC50
Hey, just a heads up that pIC50 is the negative log base 10 of the concentration in molar.

## Task Entry COc1ccc(C2CC(=O)N(O)C2)cc1OC1CCCC1 (stereo not shown) [Example 1] has what pIC50?
## Result 5.43
